testProtocol: clinical
condition: human, in vivo
Label yes (1) when CL renal is strictly below 2 mL/min/kg; otherwise label no (0).

Please check: CL renal for C[C@@H]1CN(c2c(F)c(N)c3c(=O)c(C(=O)O)cn(C4CC4)c3c2F)C[C@H](C)N1 [SPARFLOXACIN] , strictly under 2 mL/min/kg or not? yes (1)

Please check: CL renal for Nc1c2c(nc3ccccc13)CCCC2 [TACRINE] , strictly under 2 mL/min/kg or not? yes (1)

Please check: CL renal for CO/N=C(\C(=O)N[C@@H]1C(=O)N2C(C(=O)O)=C(C)CS[C@H]12)c1csc(N)n1 , strictly under 2 mL/min/kg or not? yes (1)

Please check: CL renal for CO[C@@]1(NC(=O)C(C(=O)O)c2ccc(O)cc2)C(=O)N2C(C(=O)O)=C(CSc3nnnn3C)CO[C@@H]21 (stereo not given in full) [MOXALACTAM] , strictly under 2 mL/min/kg or not? yes (1)

Please check: CL renal for C[C@](N)(Cc1ccc(O)c(O)c1)C(=O)O [METHYLDOPA] , strictly under 2 mL/min/kg or not? no (0)
